Values of Ki for Melatonin receptor type 1B (Homo sapiens, UniProt P49286), collected from a number of published sources:
Value expressed in nM; do not type the unit.

Reference set, count: 4
CCCOc1ccc2ccc(OC)cc2c1CCNC(=O)CC
16
CNC(=O)NCCc1c(Cc2ccccc2)oc2ccc(OC)cc12
0.35
COc1ccc2[nH]cc(Cc3nnc(C)o3)c2c1
16
CCCCCCOc1ccc2oc(Cc3ccccc3)c(CCNC(C)=O)c2c1
3.21

Report the value of Ki obtained on Melatonin receptor type 1B (Homo sapiens, UniProt P49286) for CCCC(=O)NCCCc1cc(OC)ccc1OCc1ccccc1 .
0.00103

Report the value of Ki obtained on Melatonin receptor type 1B (Homo sapiens, UniProt P49286) for COc1ccc2nc(-c3ccccc3)nc(CCNC(C)=O)c2c1 .
15.6

Report the value of Ki obtained on Melatonin receptor type 1B (Homo sapiens, UniProt P49286) for CCCC(=O)NCCc1nncc2ccc(OC)cc12 .
108

---

Values of Ki for Melatonin receptor type 1B (Homo sapiens, UniProt P49286), collected from a number of published sources:
target.system: Melatonin receptor type 1B (Homo sapiens, UniProt P49286)
Sequence (P49286 whole entry): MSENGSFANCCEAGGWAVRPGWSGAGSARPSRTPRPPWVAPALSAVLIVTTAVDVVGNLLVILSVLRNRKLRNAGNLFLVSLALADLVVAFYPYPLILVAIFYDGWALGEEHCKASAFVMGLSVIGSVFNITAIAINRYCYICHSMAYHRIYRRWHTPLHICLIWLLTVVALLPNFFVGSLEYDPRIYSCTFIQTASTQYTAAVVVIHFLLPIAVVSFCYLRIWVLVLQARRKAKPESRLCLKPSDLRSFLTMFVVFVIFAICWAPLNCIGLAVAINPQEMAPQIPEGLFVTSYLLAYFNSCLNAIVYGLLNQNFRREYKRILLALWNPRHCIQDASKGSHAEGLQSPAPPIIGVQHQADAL
Value expressed in nM; do not type the unit.

CCCC(=O)NC[C@H](C)Sc1cccc(OC)c1
6.03
CC(=O)NCCc1c(Cc2ccccc2)oc2ccccc12
10.6
COc1cc2c(cc1OC)C(CC(c1ccccc1)c1ccccc1)N(C(C)=O)CC2 (configuration not stated)
9.77
CCNc1nnc(Cc2c[nH]c3ccc(OC)cc23)s1
17
CCCC(=O)NCCCc1cccc2nc(CC)oc12
1
C=CC(=O)NCCc1c(Sc2ccc(F)cc2)sc2ccc(F)cc12
10.7

Note: attention shifts to another entry.
Find the measured Ki of CCC(=O)NCCCc1cc2c(OC)cccc2n1-c1ccccc1 and report it.
12.9

---

Values of Ki for UniProtKB P49286, collected from a number of published sources:
target.system: UniProtKB P49286
Sequence (P49286 whole entry): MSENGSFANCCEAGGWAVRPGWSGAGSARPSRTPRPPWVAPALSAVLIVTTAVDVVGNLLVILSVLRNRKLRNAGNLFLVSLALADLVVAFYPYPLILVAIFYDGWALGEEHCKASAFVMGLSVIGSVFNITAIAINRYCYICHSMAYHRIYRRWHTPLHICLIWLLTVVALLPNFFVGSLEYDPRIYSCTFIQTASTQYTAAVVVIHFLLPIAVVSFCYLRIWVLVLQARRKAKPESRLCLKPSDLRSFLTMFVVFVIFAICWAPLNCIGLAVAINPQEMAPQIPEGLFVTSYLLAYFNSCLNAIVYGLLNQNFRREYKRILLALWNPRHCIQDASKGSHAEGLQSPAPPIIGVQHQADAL
Value expressed in nM; do not type the unit.

CCCC(=O)Nc1ccc(S(=O)(=O)c2cccc(OC)c2)cc1
10
COc1ccc2oc(Cc3c(Cl)cccc3Cl)c(CCNC(C)=O)c2c1
12.8

Report the value of Ki obtained on UniProtKB P49286 for COc1cccc(NCCNC(C)=O)c1 .
7.41

---

Values of Ki for Melatonin receptor type 1B (Homo sapiens, UniProt P49286), collected from a number of published sources:
Rule: measured Ki below 10 nM gets true (1); anything equal to or greater than 10 nM gets false (0).

Worked set:
CCC(=O)NCCCc1cccc2nc(CCCCc3ccccc3)oc12
false (0)
CCCCOc1ccc2ccc(OC)cc2c1CCNC(=O)CC
true (1)
CCCC(=O)Nc1ccc(Cc2cccc3occc23)cc1
true (1)
CC(=O)NC(C)COc1ccccc1 (configuration not stated)
false (0)

// next entry
Determine if COc1ccc2[nH]c(C(=O)OCCCCCCCCCOC(=O)c3[nH]c4ccc(OC)cc4c3CCNC(C)=O)c(CCNC(C)=O)c2c1 shows Ki strictly lower than 10 nM.
true (1)

---

pKi: −log10 of the molar value.
Values of pKi for Melatonin receptor type 1B (Homo sapiens), collected from a number of published sources:
Label condition not met if pKi falls below 9; label condition met in every other case.

Worked set:
CC(C)C(=O)NCCCc1cccc2nc(-c3ccccc3)oc12
condition not met
CC(=O)NCC1Cc2cccc3cccc1c23 (stereo not given)
condition met
CCc1nc2cccc(CCCNC(=O)C(C)C)c2o1
condition not met

// next entry
hey, is pKi for this one >= 9? COc1ccc2oc(Cc3ccccc3OC)c(CCNC(C)=O)c2c1
condition met

---

pKi: −log10 of the molar value.
Values of pKi for Melatonin receptor type 1B (Homo sapiens), collected from a number of published sources:
Label no if pKi falls below 6; label yes in every other case.

CCCC(=O)NCCC1Cc2cccc3cccc1c23 (stereo not given)
yes
COc1ccc2cccc(CCC(=O)NC3CC3)c2n1
yes
CC(=O)NCCOc1ccccc1
no

hey, is pKi for this one >= 6? CC(=O)NCCN(C)c1cccc(OCCCCCCOc2cccc(O)c2)c1
yes

hey, is pKi for this one >= 6? CC(=O)NCCN(C)c1cccc(OCCCCOc2cccc(O)c2)c1
yes

---

Values of pKi for UniProt P49286, collected from a number of published sources:
target.system: UniProt P49286
Sequence (P49286 whole entry): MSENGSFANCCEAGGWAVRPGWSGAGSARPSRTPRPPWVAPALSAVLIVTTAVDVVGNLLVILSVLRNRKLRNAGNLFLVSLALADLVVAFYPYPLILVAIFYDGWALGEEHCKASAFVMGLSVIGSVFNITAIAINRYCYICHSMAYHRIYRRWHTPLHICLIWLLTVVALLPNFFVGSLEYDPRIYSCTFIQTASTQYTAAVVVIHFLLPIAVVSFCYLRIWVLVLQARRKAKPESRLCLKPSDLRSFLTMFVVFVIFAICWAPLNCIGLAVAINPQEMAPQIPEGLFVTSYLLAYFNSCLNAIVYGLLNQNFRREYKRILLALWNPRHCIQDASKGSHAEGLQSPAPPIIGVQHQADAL
pKi: −log10 of the molar value.
Label Not fulfilled if pKi falls below 8; label Fulfilled in every other case.

COc1cc2c(CCNC(C)=O)coc2cn1
Not fulfilled
O=C(N[C@@H]1CCN(c2cccc3c2CCO3)C1)C1CC1
Not fulfilled
CCNC(=O)NCCCc1cccc2nc(C(C)C)oc12
Not fulfilled
CCNC(=O)Nc1ccc(Oc2cccc(OC)c2)cc1
Not fulfilled
CCNC(=O)NCCC1=C(C(C)C)Cc2ccc3c(c21)CCO3
Fulfilled

hey, is pKi for this one >= 8? COc1ccc(C2=C(CCNC(C)=O)c3c(ccc4c3CCO4)C2)cc1
Fulfilled

hey, is pKi for this one >= 8? COc1ccc2[nH]c(C(=O)OCCCCCCCCCCCCOC(=O)c3[nH]c4ccc(OC)cc4c3CCNC(C)=O)c(CCNC(C)=O)c2c1
Not fulfilled

hey, is pKi for this one >= 8? COc1ccc2oc(I)c(CCNC(C)=O)c2n1
Fulfilled

hey, is pKi for this one >= 8? CCC(=O)NCCc1cc2c(OC)cccc2[nH]1
Not fulfilled

hey, is pKi for this one >= 8? CCC(=O)NCC1Cc2cccc3ccc(OC)c1c23 (configuration not stated)
Fulfilled

hey, is pKi for this one >= 8? CCCC(=O)NCCCc1cccc2nc(CCCCc3ccccc3)oc12
Not fulfilled

---

Values of Ki for UniProtKB P49286, collected from a number of published sources:
target.system: UniProtKB P49286
Sequence (P49286 whole entry): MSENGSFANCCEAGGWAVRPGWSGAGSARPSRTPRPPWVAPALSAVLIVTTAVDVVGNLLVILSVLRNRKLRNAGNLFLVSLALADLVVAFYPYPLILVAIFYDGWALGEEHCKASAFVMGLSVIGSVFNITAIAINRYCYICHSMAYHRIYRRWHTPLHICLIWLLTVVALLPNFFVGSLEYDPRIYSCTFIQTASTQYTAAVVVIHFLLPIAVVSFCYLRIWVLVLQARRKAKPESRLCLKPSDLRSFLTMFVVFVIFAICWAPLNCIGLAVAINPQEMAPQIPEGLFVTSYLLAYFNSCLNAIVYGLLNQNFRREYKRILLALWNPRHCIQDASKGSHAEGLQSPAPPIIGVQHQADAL
Rule: measured Ki below 20 nM gets rule met; anything equal to or greater than 20 nM gets rule not met.

Worked set:
CC(=O)NCC1Cc2ccccc2N(C)C1 (racemic)
rule met
COc1ccc2cccc3c2c1CCC3CCNC(C)=O (stereo unspecified)
rule met
COc1ccc(Cc2ccccc2)c(CCNC(C)=O)c1
rule met
CCCC(=O)NCCCc1cccc2nc(-c3ccccc3)oc12
rule met
CC(=O)NC/C(=C\c1ccccc1)c1ccccc1
rule not met
CC(=O)NCCc1cccc2ccc(OCCCCOc3ccc4c(c3)C(CCNC(C)=O)CCC4)cc12 (stereo unspecified)
rule met

Determine if O=C(NCCC1Cc2cccc3cccc1c23)C1CC1 (stereo unspecified) shows Ki strictly lower than 20 nM.
rule met

Determine if CC(=O)NCCCc1cccc2nc(C)oc12 shows Ki strictly lower than 20 nM.
rule met

Determine if COc1cccc2c1c(Br)c(CNC(C)=O)n2Cc1ccccc1 shows Ki strictly lower than 20 nM.
rule not met

Determine if COc1ccc2[nH]cc(CCc3nnco3)c2c1 shows Ki strictly lower than 20 nM.
rule not met

Determine if COc1ccc2oc(Cc3cccc(C(F)(F)F)c3)c(CCNC(C)=O)c2c1 shows Ki strictly lower than 20 nM.
rule met

Determine if CCCC(=O)NCCCc1cccc2ncoc12 shows Ki strictly lower than 20 nM.
rule met
